# System: biotinylated labeled human GPC3 protein (produced in-house) (human, UniProt P51654 25-559, limits assumed, biotinylated (Dojindo, Cat. No. LK03); sites not stated)
# Experiment Summary: ELISA, biotinylated human GPC3 protein
Measured Endpoint: OD450 at 0.004 nM (OD450)
Entry rule: numbers only, all in OD450.

Q. Annotate the binder hAb006LH2L1 (antibody, human IgG1, V domains shown, Humanized F3.38.7; VH H2 + VL L1; expressed as human IgG1) VH: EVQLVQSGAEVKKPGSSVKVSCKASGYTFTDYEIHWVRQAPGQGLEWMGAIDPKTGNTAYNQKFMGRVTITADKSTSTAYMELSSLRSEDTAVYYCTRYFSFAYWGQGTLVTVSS VL: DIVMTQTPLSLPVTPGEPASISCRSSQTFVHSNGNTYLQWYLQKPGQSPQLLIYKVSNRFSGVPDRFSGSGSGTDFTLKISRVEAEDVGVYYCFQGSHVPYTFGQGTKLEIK with its measured OD450 at 0.004 nM.
A. 0.629

Q. Annotate the binder hAb005LH1L1b (antibody, human IgG1, V domains shown, Humanized F3.54.12; VH H1 + VL L1b; expressed as human IgG1) VH: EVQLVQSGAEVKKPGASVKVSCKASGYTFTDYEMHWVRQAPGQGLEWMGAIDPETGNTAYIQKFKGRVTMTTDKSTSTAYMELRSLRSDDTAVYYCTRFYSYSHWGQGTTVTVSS VL: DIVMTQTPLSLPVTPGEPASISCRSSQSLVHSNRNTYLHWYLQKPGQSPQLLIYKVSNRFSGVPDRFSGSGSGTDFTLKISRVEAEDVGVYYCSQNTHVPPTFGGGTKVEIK with its measured OD450 at 0.004 nM.
A. 0.172

Q. Annotate the binder hAb003LH3L1b (antibody, human IgG1, V domains shown, Humanized F2.154.1; VH H3 + VL L1b; expressed as human IgG1) VH: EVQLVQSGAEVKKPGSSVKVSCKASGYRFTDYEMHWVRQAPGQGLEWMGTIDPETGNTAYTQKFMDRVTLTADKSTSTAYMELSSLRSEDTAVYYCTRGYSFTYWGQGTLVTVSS VL: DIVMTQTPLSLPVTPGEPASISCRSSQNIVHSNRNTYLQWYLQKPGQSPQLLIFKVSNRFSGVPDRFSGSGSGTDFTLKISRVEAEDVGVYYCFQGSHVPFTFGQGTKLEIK with its measured OD450 at 0.004 nM.
A. 0.381
